Below, each entry is listed alongside its reported protein stability index.
B1: IKZF1 (parent)
chain: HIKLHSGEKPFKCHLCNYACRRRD

Variants of: B1
Experiment: protein stability index of a GFP-peptide fusion (GPS, HEK-293T) (PSI 1-6); higher = more stable;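 further: lentivirally expressed fusions sorted by FACS into six bins by GFP to DsRed ratio, PSI derived from sequencing read proportions per bin multiplied by bin number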
Conditions: c terminus: a fixed tail appended
Please reply with the number alone, leaving off any unit.

construct-sequence	protein stability index
HIKLHSGEKPFKCHLCGYACRRRD [N17G]	2.05
HIKLHSGEKPFKCHLCNYDCRRRD [A19D]	1.58
HIKLHSGEKPFKCHLCNYACRMRD [R22M]	1.87
HIKLHSGEKPFKCHLCNYACRRID [R23I]	2
HIKLHSGEKPFKCHLCNYACARRD [R21A]	3.46
HIKLHSGIKPFKCHLCNYACRRRD [E8I]	1.74

Lookup result for HIKLHSGEKPFKCHLCNYACFRRD [R21F] ; measured protein stability index: 2.22

# protein stability index (variant: HIKLHSGEKPFKCHLVNYACRRRD [C16V] ) is 1.81

protein stability index for HIKLHSGEKPFKCHLCNYACRKRD [R22K] is 1.95

The measured protein stability index associated with HIKLHSGEKPFKCHLCHYACRRRD [N17H] reads 1.98

HIGLHSGEKPFKCHLCNYACRRRD [K3G] has a reported protein stability index of 2.38

Value of protein stability index reported for the variant HIKLHSGEKPFKCHLCNYACQRRD [R21Q] is 1.15

Per the record, HWKLHSGEKPFKCHLCNYACRRRD [I2W] has protein stability index of 2.22
